Test system: PC-3 PIP/flu tumor-bearing mice
Assay: Biodistribution studies in PC-3 PIP/flu tumor-bearing mice
Details: 24 h p.i.; PC-3 PIP tumor
EXPERIMENTAL_READOUT: Tumor-to-kidney

O=C(O)CCC(NC(=O)NC(CCCCNC(=O)C(Cc1ccc2ccccc2c1)NC(=O)C1CCC(CNC(=O)C(CCCCNC(=O)CCCc2ccc(I)cc2)NC(=O)CN2CCN(CC(=O)O)CCN(CC(=O)O)CCN(CC(=O)O)CC2)CC1)C(=O)O)C(=O)O (stereo not drawn) [^177Lu-PSMA-ALB-03, metal not drawn] ... 2.17 ± 0.06
Cc1ccc(CCCC(=O)NC(CC(=O)NC(CC(=O)NC(CC(=O)NC(CCCCNC(=O)CN2CCN(CC(=O)O)CCN(CC(=O)O)CCN(CC(=O)O)CC2)C(=O)NCC2CCC(C(=O)NC(Cc3ccc4ccccc4c3)C(=O)NCCCCC(NC(=O)NC(CCC(=O)O)C(=O)O)C(=O)O)CC2)C(=O)O)C(=O)O)C(=O)O)cc1 (stereo not drawn) [^177Lu-PSMA-ALB-08, metal not drawn] ... 2.39 ± 0.24

// next item, Tumor-to-kidney requested
Task: Quick check: Tumor-to-kidney of Cc1ccc(CCCC(=O)NCCCC[C@H](NC(=O)CCC(C(=O)O)N2CCN(CC(=O)O)CCN(CC(=O)O)CC2)C(=O)NC[C@H]2CC[C@H](C(=O)N[C@H](Cc3ccc4ccccc4c3)C(=O)NCCCC[C@@H](NC(=O)N[C@H](CCC(=O)O)C(=O)O)C(=O)O)CC2)cc1 (stereo partly drawn) [^64Cu-PSMA-ALB-89, metal not drawn] ?
Output: 2.68 ± 0.36

###

Measured Salivary glands by item
System: PC-3 PIP/flu tumor-bearing mice
Assay: Biodistribution studies in PC-3 PIP/flu tumor-bearing mice
Details: 24 h p.i.

The following compounds have reported results that may help.
O=C(O)CCC(NC(=O)NC(CCCCNC(=O)C(Cc1ccc2ccccc2c1)NC(=O)C1CCC(CNC(=O)C(CCCCNC(=O)CN2CCN(CC(=O)O)CCN(CC(=O)O)CCN(CC(=O)O)CC2)NC(=O)CC(NC(=O)CC(NC(=O)CC(NC(=O)CCCc2ccc(I)cc2)C(=O)O)C(=O)O)C(=O)O)CC1)C(=O)O)C(=O)O (stereo not drawn) [^177Lu-PSMA-ALB-07, metal not drawn] ... 0.43 ± 0.04 % IA/g
O=C(O)CCC(NC(=O)NC(CCCCNC(=O)C(Cc1ccc2ccccc2c1)NC(=O)C1CCC(CNC(=O)C(CCCCNC(=O)CN2CCN(CC(=O)O)CCN(CC(=O)O)CCN(CC(=O)O)CC2)NC(=O)CC(NC(=O)CC(NC(=O)CCCc2ccc(I)cc2)C(=O)O)C(=O)O)CC1)C(=O)O)C(=O)O (stereo not drawn) [^177Lu-PSMA-ALB-05, metal not drawn] ... 0.49 ± 0.10 % IA/g

Task: What value of measured Salivary glands is listed for O=C(O)CCC(NC(=O)NC(CCCCNC(=O)C(Cc1ccc2ccccc2c1)NC(=O)C1CCC(CNC(=O)C(CCCCNC(=O)CN2CCN(CC(=O)O)CCN(CC(=O)O)CCN(CC(=O)O)CC2)NC(=O)CCCCCCC(=O)NC(CCCCNC(=O)CCCc2ccc(I)cc2)C(=O)O)CC1)C(=O)O)C(=O)O (stereo not drawn) [^177Lu-PSMA-ALB-04, metal not drawn] ?
Output: 12.5 ± 0.42 % IA/g

Task: Can you check O=C(O)CCC(NC(=O)NC(CCCCNC(=O)C(Cc1ccc2ccccc2c1)NC(=O)C1CCC(CNC(=O)C(CCCCNC(=O)CCCc2ccc(I)cc2)NC(=O)CN2CCN(CC(=O)O)CCN(CC(=O)O)CCN(CC(=O)O)CC2)CC1)C(=O)O)C(=O)O (stereo not drawn) [^177Lu-PSMA-ALB-03, metal not drawn] next?
Output: 4.69 ± 0.33 % IA/g

Task: Record: Cc1ccc(CCCC(=O)NC(CC(=O)NC(CC(=O)NC(CC(=O)NC(CCCCNC(=O)CN2CCN(CC(=O)O)CCN(CC(=O)O)CCN(CC(=O)O)CC2)C(=O)NCC2CCC(C(=O)NC(Cc3ccc4ccccc4c3)C(=O)NCCCCC(NC(=O)NC(CCC(=O)O)C(=O)O)C(=O)O)CC2)C(=O)O)C(=O)O)C(=O)O)cc1 (stereo not drawn) [^177Lu-PSMA-ALB-08, metal not drawn]
Output: 0.07 ± 0.05 % IA/g

Task: And O=C(O)CCC(NC(=O)NC(CCCCNC(=O)C(Cc1ccc2ccccc2c1)NC(=O)C1CCC(n2cc(CC(NC(=O)CN3CCN(CC(=O)O)CCN(CC(=O)O)CCN(CC(=O)O)CC3)C(=O)NC(CCCCNC(=O)CCCc3ccc(I)cc3)C(=O)O)nn2)CC1)C(=O)O)C(=O)O (stereo not drawn) [^177Lu-PSMA-ALB-01, metal not drawn] ?
Output: 3.38 ± 0.32 % IA/g

Provenance of the data: patent US11629201B2
